Tgt: histone deacetylase enzyme from partially purified extracts of Eimeria tenella
Experiment Summary: ChEBML_79057
Measurement Kind: IC50 (nM)

Worked examples follow.
>>> df
                                   compound  data_value
0  CCC(=O)CCCCC[C@@H]1NC(=O)[C@H]2CCCCN2C(=O)[C@H]([C@@H](C)CC)NC(=O)[C@H](c2cnc3ccccc3c2Cl)NC1=O           2
1  CCC(=O)CCCCCc1[nH]c(O)c2n(c(O)c([C@@H](C)CC)[nH]c(=O)c(CC(O)c3ccccc3[N+](=O)[O-])nc1O)CCCC2 (stereo partly specified)          33

I: CCC(=O)CCCCC[C@@H]1NC(=O)[C@H]2CCCCN2C(=O)[C@H]([C@@H](C)CC)NC(=O)[C@H](CCOc2ccccc2)NC1=O
II: CCC(=O)CCCCCc1[nH]c(O)c2n(c(O)c([C@@H](C)CC)[nH]c(=O)c(C(O)c3ccc4c(ccn4C)c3)nc1O)CCCC2 (stereo partly specified)
III: CCC(=O)CCCCC[C@@H]1NC(=O)[C@H]2CCCCN2C(=O)[C@H]([C@@H](C)CC)NC(=O)[C@H](Cc2cn(OC)c3ccc(Br)cc23)NC1=O
IV: CCC(=O)CCCCC[C@@H]1NC(=O)[C@H]2CCCCN2C(=O)[C@H]([C@@H](C)CC)NC(=O)[C@H](c2cn(CC)c3ccccc3c2=O)NC1=O
Order these by IC50, descending, and give the full ranking. Give the labels in the order requested.
III, II, IV, I
(III: 175 nM, II: 30 nM, IV: 11 nM, I: 3 nM)
